These measurements were taken from ChEMBL document CHEMBL5500407.

# Assay Name: Selectivity index, ratio of EC50 for alpha2A-adrenoceptor (unknown origin) to EC50 for alpha2B-adrenoceptor (unknown origin)
Measured Selectivity Index values are reported for all entries that follow.
Reported Property: Selectivity Index

compound=Cc1cccc2c1OCC=C2c1c[nH]cn1 numeric_readout=47
compound="Cc1cccc2c1OCCC2c1c[nH]cn1 (stereo not given)" numeric_readout=22
compound=Brc1cccc2c1OCC=C2c1c[nH]cn1 numeric_readout=238
compound=Fc1cc(Br)c2c(c1)C(c1c[nH]cn1)=CCO2 numeric_readout=73
compound="Clc1cccc2c1OCCC2c1c[nH]cn1 (stereo not given)" numeric_readout=10

----------
# Assayed System: Alpha-2C adrenergic receptor (Homo sapiens)
# Sequence (P18825 whole entry): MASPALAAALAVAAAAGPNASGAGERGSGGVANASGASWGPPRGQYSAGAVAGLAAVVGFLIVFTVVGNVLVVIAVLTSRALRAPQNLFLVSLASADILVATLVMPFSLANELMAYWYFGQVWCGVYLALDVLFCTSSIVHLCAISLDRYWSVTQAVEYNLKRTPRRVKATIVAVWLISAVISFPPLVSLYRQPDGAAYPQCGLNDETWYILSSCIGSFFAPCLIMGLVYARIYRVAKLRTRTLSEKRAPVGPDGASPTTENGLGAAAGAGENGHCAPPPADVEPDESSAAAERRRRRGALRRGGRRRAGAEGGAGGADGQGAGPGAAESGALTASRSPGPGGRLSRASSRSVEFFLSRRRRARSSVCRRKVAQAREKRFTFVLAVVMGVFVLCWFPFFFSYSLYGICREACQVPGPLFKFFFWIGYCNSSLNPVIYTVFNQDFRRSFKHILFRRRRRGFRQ
# Assay Name: Agonist activity at human alpha2C-adrenoceptor
Reported Property: EC50 (nM)

chem_smiles=Cc1cccc([C@H](C)c2cnc[nH]2)c1C reported_property=EC50 unit_string=nM numeric_readout=28.8

----------
# Assay Name: Selectivity index, ratio of EC50 for alpha2A-adrenoceptor (unknown origin) to EC50 for alpha2C-adrenoceptor (unknown origin)
Measured Selectivity Index values are reported for all entries that follow.
Reported Property: Selectivity Index

molecule=Brc1cccc2c1OCC=C2c1c[nH]cn1 result=48
molecule="Clc1cccc2c1OCCC2c1c[nH]cn1 (stereo not given)" result=15
molecule=Fc1cc(Br)c2c(c1)C(c1c[nH]cn1)=CCO2 result=24
molecule="Cc1cccc2c1OCCC2c1c[nH]cn1 (stereo not given)" result="> 2000"
molecule=Cc1cccc2c1OCC=C2c1c[nH]cn1 result=24

----------
# Assayed System: Alpha-2C adrenergic receptor (Homo sapiens)
# Sequence (P18825 whole entry): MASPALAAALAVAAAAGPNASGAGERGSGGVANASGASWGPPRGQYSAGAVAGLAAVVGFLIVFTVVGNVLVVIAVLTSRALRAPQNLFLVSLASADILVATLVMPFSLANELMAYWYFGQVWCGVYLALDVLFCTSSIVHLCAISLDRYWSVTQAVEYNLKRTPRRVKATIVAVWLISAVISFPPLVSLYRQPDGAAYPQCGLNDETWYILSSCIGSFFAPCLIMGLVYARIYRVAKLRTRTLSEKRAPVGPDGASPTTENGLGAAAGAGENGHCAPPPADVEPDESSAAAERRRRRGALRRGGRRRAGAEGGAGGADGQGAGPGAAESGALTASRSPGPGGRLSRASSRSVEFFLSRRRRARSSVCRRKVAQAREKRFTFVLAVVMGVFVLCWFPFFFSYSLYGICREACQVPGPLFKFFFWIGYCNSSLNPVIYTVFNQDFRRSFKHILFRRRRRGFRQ
Measured Ki values are reported for all entries that follow.
Reported Property: Ki (µM)

compound=NC1=N[C@]2(CCc3cccc(Cl)c3C2)OC1 assayed_system="Alpha-2C adrenergic receptor (Homo sapiens)" reported_property=Ki relation_operator== numeric_readout=0.000316
compound="COc1cccc2c1CCOC2C1=NCCN1 (stereo not drawn)" assayed_system="Alpha-2C adrenergic receptor (Homo sapiens)" reported_property=Ki relation_operator=> numeric_readout=1
compound=C[C@H](c1c[nH]cn1)c1cccc2ccccc12 assayed_system="Alpha-2C adrenergic receptor (Homo sapiens)" reported_property=Ki relation_operator== numeric_readout=0.0178

----------
# Assayed System: Alpha-2B adrenergic receptor (Homo sapiens)
# Sequence (P18089 whole entry): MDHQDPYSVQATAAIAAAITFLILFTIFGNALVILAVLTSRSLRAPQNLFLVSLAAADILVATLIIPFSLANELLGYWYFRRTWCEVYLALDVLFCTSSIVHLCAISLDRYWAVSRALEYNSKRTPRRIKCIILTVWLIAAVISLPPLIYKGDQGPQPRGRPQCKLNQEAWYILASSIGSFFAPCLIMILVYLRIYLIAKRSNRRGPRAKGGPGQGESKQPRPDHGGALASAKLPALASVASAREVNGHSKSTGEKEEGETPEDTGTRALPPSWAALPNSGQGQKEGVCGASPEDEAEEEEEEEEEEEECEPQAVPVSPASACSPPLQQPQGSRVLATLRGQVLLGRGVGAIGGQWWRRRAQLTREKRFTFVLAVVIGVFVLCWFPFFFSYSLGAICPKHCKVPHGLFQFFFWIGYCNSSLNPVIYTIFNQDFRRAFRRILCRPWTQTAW
# Assay Name: Agonist activity at alpha2B-adrenoceptor (unknown origin) expressed in U2OS-EGFP-NFAT2-alpha2B-AR cells assessed as increase in intracellular calcium level measured after 15 mins incubation by Micro automated microscopy
# Type: functional, cell-based
pEC50: −log10 of the molar value.
Each entry gets FALSE if its pEC50 stays under 7, and TRUE if its pEC50 is 7 or above.

compound="Cc1cccc2c1OCCC2c1c[nH]cn1 (configuration not stated)" group_label=TRUE
compound=Cc1cccc([C@H](C)c2cnc[nH]2)c1C group_label=TRUE
compound="Clc1cccc2c1OCCC2c1c[nH]cn1 (configuration not stated)" group_label=TRUE
compound=Brc1cccc2c1OCC=C2c1c[nH]cn1 group_label=FALSE

----------
# Assayed System: Alpha-1B adrenergic receptor (Homo sapiens)
# Sequence (P35368 whole entry): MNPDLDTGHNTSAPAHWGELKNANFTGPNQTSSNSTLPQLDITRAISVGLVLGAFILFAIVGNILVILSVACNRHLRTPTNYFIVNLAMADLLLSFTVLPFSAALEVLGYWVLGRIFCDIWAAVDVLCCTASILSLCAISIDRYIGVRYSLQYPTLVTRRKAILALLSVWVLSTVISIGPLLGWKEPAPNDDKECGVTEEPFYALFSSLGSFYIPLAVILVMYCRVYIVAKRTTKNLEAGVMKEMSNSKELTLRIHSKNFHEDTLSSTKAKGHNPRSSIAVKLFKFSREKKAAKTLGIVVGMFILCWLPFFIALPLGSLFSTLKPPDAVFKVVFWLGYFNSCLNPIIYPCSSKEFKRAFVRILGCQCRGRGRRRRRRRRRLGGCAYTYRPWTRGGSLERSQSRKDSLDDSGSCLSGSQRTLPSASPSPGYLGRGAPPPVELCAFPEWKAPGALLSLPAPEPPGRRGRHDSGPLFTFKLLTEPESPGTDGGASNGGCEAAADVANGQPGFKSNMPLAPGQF
# Assay Name: Binding affinity to human alpha1B-adrenoceptor
Reported Property: Ki (nM)

molecule="COc1cccc2c1CCOC2C1=NCCN1 (stereo not drawn)" numeric_readout=525
molecule=Cc1cccc([C@H](C)c2cnc[nH]2)c1C numeric_readout=9120
molecule=NC1=N[C@]2(CCc3cccc(Cl)c3C2)OC1 numeric_readout=20

----------
# Assayed System: Alpha-2C adrenergic receptor (Homo sapiens)
# Assay Name: Agonist activity at alpha2C-adrenoceptor (unknown origin) expressed in CHO-alpha2C-PKAcatEGFP cells assessed as increase in intracellular calcium level measured after 15 mins incubation by Micro automated microscopy
# Type: functional, cell-based
Reported Property: EC50 (nM)

molecule=Fc1cc(Br)c2c(c1)C(c1c[nH]cn1)=CCO2 reported_property=EC50 relation_operator== numeric_readout=27.9
molecule="Clc1cccc2c1OCCC2c1c[nH]cn1 (configuration not stated)" reported_property=EC50 relation_operator== numeric_readout=35.8
molecule=Cc1cccc2c1OCC=C2c1c[nH]cn1 reported_property=EC50 relation_operator== numeric_readout=49.6
molecule="Cc1cccc2c1OCCC2c1c[nH]cn1 (configuration not stated)" reported_property=EC50 relation_operator=> numeric_readout=5000
molecule=Cc1cccc([C@H](C)c2cnc[nH]2)c1C reported_property=EC50 relation_operator== numeric_readout=5.37
molecule="Brc1cccc2c1OCCC2c1c[nH]cn1 (configuration not stated)" reported_property=EC50 relation_operator== numeric_readout=21.3
molecule=Brc1cccc2c1OCC=C2c1c[nH]cn1 reported_property=EC50 relation_operator== numeric_readout=37.2

----------
Entries with their measured log10 EC50, system Alpha-2A adrenergic receptor (Homo sapiens, UniProt P08913):
Reported Property: log10 EC50 (log10 of the value in nM)

molecule="Clc1cccc2c1OCCC2c1c[nH]cn1 (stereo not drawn)" reported_property="log10 EC50" numeric_readout=0.37
molecule=Cc1ccc2c(c1Br)OCC=C2c1c[nH]cn1 reported_property="log10 EC50" numeric_readout=2.02
molecule=Cc1cccc2c1OCC=C2c1c[nH]cn1 reported_property="log10 EC50" numeric_readout=0.32
molecule=Clc1ccc2c(c1)C(c1cnc[nH]1)=CCO2 reported_property="log10 EC50" numeric_readout=2.95
molecule="Brc1ccc2c(c1)OCCC2c1c[nH]cn1 (stereo not drawn)" reported_property="log10 EC50" numeric_readout=2.22
molecule=Fc1cc(Br)c2c(c1)C(c1c[nH]cn1)=CCO2 reported_property="log10 EC50" numeric_readout=0.06
molecule=Clc1cccc2c1OCC=C2c1cnc[nH]1 reported_property="log10 EC50" numeric_readout=1.11
molecule="Clc1ccc2c(c1)C(c1c[nH]cn1)CCO2 (stereo not drawn)" reported_property="log10 EC50" numeric_readout=1.81
molecule=Clc1cc(Cl)c2c(c1)C(c1c[nH]cn1)=CCO2 reported_property="log10 EC50" numeric_readout=3.67
molecule=Brc1cccc2c1OCC=C2c1c[nH]cn1 reported_property="log10 EC50" numeric_readout=-0.11
molecule="Cc1ccc2c(c1)C(c1c[nH]cn1)CCO2 (stereo not drawn)" reported_property="log10 EC50" numeric_readout=3.31

----------
# Assayed System: UniProtKB P18089
# Assay Name: Agonist activity at alpha2B-adrenoceptor (unknown origin) expressed in U2OS-EGFP-NFAT2-alpha2B-AR cells assessed as increase in intracellular calcium level measured after 15 mins incubation by Micro automated microscopy
# Assay type: functional, cell-based
Measured EC50 values are reported for all entries that follow.
Reported Property: EC50 (nM)

compound=Cc1cccc2c1OCC=C2c1c[nH]cn1 assayed_system="UniProtKB P18089" reported_property=EC50 unit_string=nM numeric_readout=100
compound=Fc1cc(Br)c2c(c1)C(c1c[nH]cn1)=CCO2 assayed_system="UniProtKB P18089" reported_property=EC50 unit_string=nM numeric_readout=83.4
compound="Brc1cccc2c1OCCC2c1c[nH]cn1 (stereo not drawn)" assayed_system="UniProtKB P18089" reported_property=EC50 unit_string=nM numeric_readout=163
